pIC50 for assorted compounds
# target.or.test.system: human progesterone receptor B (Homo sapiens, UniProt P06401)
# Sequence (P06401 whole entry): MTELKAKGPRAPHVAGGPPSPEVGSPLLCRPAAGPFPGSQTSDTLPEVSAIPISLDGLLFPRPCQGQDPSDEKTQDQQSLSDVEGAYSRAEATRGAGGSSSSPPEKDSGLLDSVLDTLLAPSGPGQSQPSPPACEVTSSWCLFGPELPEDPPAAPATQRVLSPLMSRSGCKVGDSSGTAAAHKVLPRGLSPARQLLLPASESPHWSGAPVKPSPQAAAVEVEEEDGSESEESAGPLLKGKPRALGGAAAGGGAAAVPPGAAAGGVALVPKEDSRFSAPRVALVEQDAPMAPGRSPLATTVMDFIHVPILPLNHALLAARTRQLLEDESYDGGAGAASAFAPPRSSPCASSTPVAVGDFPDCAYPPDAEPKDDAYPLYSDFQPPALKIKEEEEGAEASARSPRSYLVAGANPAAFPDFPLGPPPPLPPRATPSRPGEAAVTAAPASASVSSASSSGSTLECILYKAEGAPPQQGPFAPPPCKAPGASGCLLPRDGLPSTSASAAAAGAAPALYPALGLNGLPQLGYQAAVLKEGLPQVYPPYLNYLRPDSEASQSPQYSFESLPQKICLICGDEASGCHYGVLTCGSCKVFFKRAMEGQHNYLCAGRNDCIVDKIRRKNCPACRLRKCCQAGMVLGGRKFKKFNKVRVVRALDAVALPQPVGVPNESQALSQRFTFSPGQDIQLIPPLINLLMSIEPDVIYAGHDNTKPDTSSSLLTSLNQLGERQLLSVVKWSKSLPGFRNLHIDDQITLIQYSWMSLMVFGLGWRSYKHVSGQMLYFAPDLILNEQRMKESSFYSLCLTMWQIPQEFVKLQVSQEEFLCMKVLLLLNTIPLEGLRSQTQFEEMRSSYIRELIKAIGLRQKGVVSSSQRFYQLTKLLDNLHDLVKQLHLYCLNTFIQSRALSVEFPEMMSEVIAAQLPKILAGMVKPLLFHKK
# assay.details: Progesterone receptor transactivation test in stably transfected SK-N-MC cells (PR-B, MMTV-LUC reporter)
# condition.context: 0.1 nmol/l promegestone, 24 hours, read-out: PR-B IC50 (antagonistic potency)
pIC50: −log10 of the molar value.
measurement.label: pIC50

CC(=O)O[C@H](C)c1ccc([C@H]2C[C@@]3(C)C(CC[C@@]3(O)C(F)(F)C(F)(F)F)C3CCC4=CC(=O)CCC4=C32)cc1 (mixture of isomers) [Example 1]    10.10
CC(OC(=O)[C@H](C)NC(=O)OC(C)(C)C)c1ccc([C@H]2C[C@@]3(C)C(CC[C@@]3(O)C(F)(F)C(F)(F)F)C3CCC4=CC(=O)CCC4=C32)cc1 (mixture of isomers) [Example 7]    10.00
CC(C)CC(=O)OC(C)c1ccc([C@H]2C[C@@]3(C)C(CC[C@@]3(O)C(F)(F)C(F)(F)F)C3CCC4=CC(=O)CCC4=C32)cc1 (mixture of isomers) [Example 3]    9.70

* * *

# assay.details: Determination of stability in human plasma
# Type: in vitro ADME
# condition.context: method of working example 19, summary statement in description, read-out: half-life in human plasma
half-life for assorted compounds
measurement.label: half-life

Cc1nccn1CCC(=O)O[C@@H](C)c1ccc([C@H]2C[C@@]3(C)[C@@H](CC[C@@]3(O)C(F)(F)C(F)(F)F)[C@@H]3CCC4=CC(=O)CCC4=C32)cc1 (single isomer, unassigned) [Example 14A]    > 100 h
CC(OC(=O)CC(C)(C)C)c1ccc([C@H]2C[C@@]3(C)C(CC[C@@]3(O)C(F)(F)C(F)(F)F)C3CCC4=CC(=O)CCC4=C32)cc1 (mixture of isomers) [Example 4]    > 100 h
CC(OC(=O)[C@@H](NC(=O)OC(C)(C)C)C(C)C)c1ccc([C@H]2C[C@@]3(C)C(CC[C@@]3(O)C(F)(F)C(F)(F)F)C3CCC4=CC(=O)CCC4=C32)cc1 (mixture of isomers) [Example 5]    > 100 h
CC(OC(=O)[C@H](C)NC(=O)OC(C)(C)C)c1ccc([C@H]2C[C@@]3(C)C(CC[C@@]3(O)C(F)(F)C(F)(F)F)C3CCC4=CC(=O)CCC4=C32)cc1 (mixture of isomers) [Example 7]    > 100 h
CC(OC(=O)CCc1nccs1)c1ccc([C@H]2C[C@@]3(C)C(CC[C@@]3(O)C(F)(F)C(F)(F)F)C3CCC4=CC(=O)CCC4=C32)cc1 (mixture of isomers) [Example 15]    > 100 h
CC(C)C(=O)OC(C)c1ccc([C@H]2C[C@@]3(C)C(CC[C@@]3(O)C(F)(F)C(F)(F)F)C3CCC4=CC(=O)CCC4=C32)cc1 (mixture of isomers) [Example 2]    > 100 h
CC(OC(=O)[C@@H](C)NC(=O)OC(C)(C)C)c1ccc([C@H]2C[C@@]3(C)[C@@H](CC[C@@]3(O)C(F)(F)C(F)(F)F)[C@@H]3CCC4=CC(=O)CCC4=C32)cc1 (mixture of isomers) [Example 6]    > 100 h
CC(=O)O[C@H](C)c1ccc([C@H]2C[C@@]3(C)C(CC[C@@]3(O)C(F)(F)C(F)(F)F)C3CCC4=CC(=O)CCC4=C32)cc1 (mixture of isomers) [Example 1]    > 100 h
CC(C)CC(=O)OC(C)c1ccc([C@H]2C[C@@]3(C)C(CC[C@@]3(O)C(F)(F)C(F)(F)F)C3CCC4=CC(=O)CCC4=C32)cc1 (mixture of isomers) [Example 3]    > 100 h
CC(OC(=O)[C@@H]1CCCN1C(=O)OC(C)(C)C)c1ccc([C@H]2C[C@@]3(C)C(CC[C@@]3(O)C(F)(F)C(F)(F)F)C3CCC4=CC(=O)CCC4=C32)cc1 (mixture of isomers) [Example 11]    > 100 h
C=CCOC(=O)N[C@H](C(=O)OC(C)c1ccc([C@H]2C[C@@]3(C)C(CC[C@@]3(O)C(F)(F)C(F)(F)F)C3CCC4=CC(=O)CCC4=C32)cc1)C(C)C (mixture of isomers) [Example 16]    > 100 h
C=CCOC(=O)N[C@@H](C)C(=O)O[C@H](C)c1ccc([C@H]2C[C@@]3(C)[C@@H](CC[C@@]3(O)C(F)(F)C(F)(F)F)[C@@H]3CCC4=CC(=O)CCC4=C32)cc1 [Example 9]    > 100 h
